Experiment: yeast display, Sf9 membrane polyspecificity reagent, FACS + sequencing; frameworks hold sequencing errors
reported property: polyreactivity (PSR sort gate)

# count of solved cases: 4
Request: Return reported polyreactivity (PSR sort gate); argument: `QVQLVESGGGLVQAGGSLRLSCASSGSTFISYAMGWYRPAPGKERELVAAISRRGDSTYYADSVKGRFTISRDNAKNTVYLQMNSLKPEDSAVYYCNAVEWDDYYYSYADYGYSYDYWGQGTQVTVSS`
Response: low polyreactivity

Request: Next: `QGQLVESGGGFVQEGGSLRLSCAASRSIFRLYAMGWYRQAPGKEREFVARLRWRGGSTNYADSVKGRFTISRDNAKKTVYLQMNSLKPEDTAVYYCNARGRSGGGRYDYWGQGTQVTVSS`
Response: high polyreactivity

Request: Next entry: `QVQLVESGGGLVQAGGSLRLSCAASGSIFLWYDMGWYRQAPGKERECVASITRSGGSTYYADSVKGRFTISRDNAKNTVYLQMNSLKPEDTAVYYCAASGATGRYSVYYHGYTYDYWGQGTQVTVSS`
Response: low polyreactivity

Request: Lookup `QVQLVESGGGLVQAGGSLRLSCAASGSIFIGYAMGWYRQAPGKERELVASIRNGGSTNYADSVKGRFTITRDNAKNTVYLQMNSLKPEDTAVYYCAGRYPVFLVSFGFDYWGQGTQVTVSS`
Response: low polyreactivity

Look at each sequence and report its polyreactivity (PSR sort gate).
1. QVQLVESGGGLVQAGGSLRLSCAASGRIFHYYAMGWYRQAPGKERELVAAIRWSGGDTYYADSVKGRFTISRDNAKNTVYLQMNSLKPEDTAVYYCAAYEHVYEYDYWGQGTQVTVSS
2. QVQLQDSGGGLVQAGGSLRLSCAASGTISYRYRMGWYRQAPRKELELVAGISFGSITYYADSVKGRFTISRDNAKNTVYLQMNSLKPEDIAVYYCAVYQKSYRFFPYWGQGTQVTVSS
3. QVQLVESGGGLVQAGGSLRLSCAASGYTFVGYAMGWYRQAPGKERELVAAITNGGNTNYADSVKGRFTISRDNAKNTVYLQMNSLKPEDTAVYYCATRHSRRYSWIKYYGIGYDYWGQGTQVTVSS
4. QVQLVESGGGLVQAGGSLRLSCAASGSIFRRYAMGWYRQAPGKERELVAAISGSAGSTYYADSVKGRFTISRDNAKNTVYLQMNSLKPEDTAVYYCKTDRSRSPGDVESASDIKRDYWGQGTQVTVSS
5. QVQLVESGGGLVQAGGSLRLSCAASGSIFWYYGMGWYRQAPGKERELVAAISSGGSTNYADSVKGRFAISRDNAKNTVYLQMNRLKPEDTAVYYCATKGYLWGQGTQVTVSS
6. QVQLVESRGGLVQAGGSLRLSCAASVSTFSDYSIGWYRQATGKERELVAGITGGGGTYYADSVKGRFTISRDNAKNTVYLQMNSLKPEDTAVYYCAAGRRHGFGYWGQGTQVTVSS

Response:
low polyreactivity
high polyreactivity
high polyreactivity
low polyreactivity
high polyreactivity
low polyreactivity

Request: Need polyreactivity (PSR sort gate) of `QVQLVESGGGLVQAGGSLRLSCAASGFTIVWYAMGWYRQATGKERELVAAISSGVSTYYADSVKGRFTISRDNAKNTVYLQMNSLKPEDTAVYYCAADREYYDEYAGYEYWGQGTQVTVSS` , thanks.
Response: low polyreactivity

* * *

Assay: yeast display, Sf9 membrane polyspecificity reagent, FACS + sequencing; frameworks hold sequencing errors
reported property: polyreactivity (PSR sort gate)

Request: Requested field: polyreactivity (PSR sort gate). Item: `QVQLVESGGGLVQAGGTLRLSCAACGSTYYRNAMGWYRPAPGKERELVATITRSGGSTYYADSVKGRFTISRDNAKNTVYLQMNSLKPEDTAVYYCAARGWYKSDYWGQGTQVTVSS`
Response: low polyreactivity

Request: Another sequence to look at: `QVQLVESCGGLVQAGCSLRLSCAASGSIFDGNAMGWYRQAPGKERDLVAVISSRGTRTYYADSVKGRFTISRDNAKITVYLQMNSLKPEDTAVYYFNTRTSDLNGSGDYWGQGTQVTVSS`
Response: high polyreactivity

Request: Input `QVQLVESGGGLVQAGGSLRLSCAASGRTFNVYAMGWYRQAPGKERELVAGISSSGGSTYYADSVKGRFTISRDNAKNTVYLQMNSLKPEDTAVYYCNTVYKYHGVRPYGYWGQGTQVTVSS`
Response: high polyreactivity

Request: What do you have for `QVQLVESGGGLVQAGGSLRLSCAASGRIFWPYAMGWYRQAPGKERELVAAITSGGSTYYADSVKGRFTLSRDNAKNTVYLQMTSLKPEDTAVYYCAKRSSGVSVPVAYGGIKRYNSWGQGTQVTVSS` ?
Response: low polyreactivity

Request: Again, but for `QVQLVESGGGLVQAGGSLRLSCAASGFTFVAYAMGWYRQAPGKERELVAAITWSGSRTYYADSVKGRFTISRDNAKNTVYLQMNSLKPEDTAVYYCAAGKTEGHYGYWGQGTQVTVSS`
Response: high polyreactivity

Request: Next: `QVQLVESGGGLVQAGGSLRLSCAASGNIFGGNAMGWYRQAPGKERELVAAMTRGGSTYYADSVKGRFTISRDNAKNTVYLQMNSLKPEATAVYYCAKSYRLRSDYDYWGQGTQVTVSS`
Response: low polyreactivity

Request: Note, next up: `QVQLVESGGGLVQERGSLRLSCAASGRIFGKYAMAWYRLAPGKERELVATISYGGGNTYYADSVKGRFTISRDNAKNTVYLQMNSMKPEDTAVYYCARVPYAYLRYKPFQQYSYDYWGQGTKVTVSS`
Response: high polyreactivity

Request: Please give the result for `QVQLVESGGGLVQAGGSLRLSCAASGRTLIYNVMGWYRQAPGKERELVAAITNGGSTYYADSVKGRFTISRDNAKNTVYLQMNSLKPEDTAVYYCATRYGKTYWGQGNQVTVSS` too.
Response: high polyreactivity

Parameters: items (list). Returns: polyreactivity (PSR sort gate) for each item.
1. QVQLVESGGGLVQAGGSLRLSCAASGIIFARNAMGWYRQAPGKERELVAAISSRSGSTYYADSVKGRFTISRDNAKNTVYVQMNSLKPEDTAVYYCNAVYAGRFGSHYWGQGTQVTVSS
2. QVQLEETGGGLVQAGGSLRLSCAASGFTFYQYAMGWYRKAPRKERELVAAISSSGTSTYYADSVKGRFTISRDNAKNTVYLQMNSLKPEDTAVYYCAARRYKLFYWGQGTQVTVSS
3. QVHLVESGGGLVQAGGSLRLSCAASGSTFVTYAMGWYTQAPGKEREFVAAISSTGTGRTYYADSVKGRFTISRDNAKNTVYLQMNSLKPEDTAVYYCAADLYGTYDYCGQGTQVTVSS

Response:
1. high polyreactivity
2. low polyreactivity
3. low polyreactivity

* * *

Assay: yeast display, Sf9 membrane polyspecificity reagent, FACS + sequencing; frameworks hold sequencing errors
reported property: polyreactivity (PSR sort gate)

Request: Look up polyreactivity (PSR sort gate): `QVQLVESVGGLVQAGGSLRLSCAASGRTFRTYTMGWYRQAPGKERGLVAAITSTGSTYYADSVKGRFTISRDNAKNTVYLQMNSLKPEDTAVYYCNVVRRLRPYRGTGPNLEYYYWGQGTQVTVSS`
Response: high polyreactivity

Request: Same thing, different sequence: `QVQLVESGGGLVQAGGSLRLSCAASGRIFSSYAMGWYRQAPGKERELVADITGRYGSTYYADSVKGRFTISRDNAKNTVYLQMNSLKPEDTAVYYCAASRFYFPRTFGGYPKLASYAYWGQVTQVTVSS`
Response: low polyreactivity

Request: Check `KLQLVESGGGLVQAGGSLRLSCADSGRIFQGNAMGWYRQAPGKERELVAAITYSGRSTFYADSVKGRFTISRDNAKNTVYLQMNRLKPEDTAFYYCAARQYWTTDLPFQRYYYWGQGTQVTVSS` too.
Response: low polyreactivity

Request: Same read-out for `QVQLVESGGGLVQAGVSLRLSCAAYGFTFTGYAMGWYRQAPGKEMEFVAAITTGGGSTYYADSVKGRFTISRDNAKNTVYFQMNSLKPEDTAVYYCAKSRQYIGGFDYWGQGTQVTVSS` ?
Response: high polyreactivity

Request: Check `QVQLVESGGGLVQAGGSLRLSCAASGRTFSPYAMGWYRQAPGKERELVAAITSRGASTYYADSVKGRFTISRDNAKNTVYLQMNSLKPEDTAVYYWNSGRTYRRLGDYWGQGTQVTVSS` too.
Response: high polyreactivity

Request: # repeat for `QGHLVESGGGLVQAGGSRRLSCAASGRIFSPYALGWSRQGPGKERELVAAISSDDGITYYADSVKRRFTISRDNAKNTVYFQMNSLKPEDTAVYYCAADSGTRPAGDYWGQGTQVTVSS`
Response: low polyreactivity

Request: Item: `QVQLVESGGGLVQAGGSLRLRCASSGRNFVPYAMGGDRQAPGTEREFVAAISRSGGSTHYADSVKGRFTISRDNAKNTVYLQMNSLKPEDTAVYYCAADYDLWLWSGYYWGQGTQVTVSS`
Response: high polyreactivity

Request: Entry to check: `QVQLVESGGGLVQEGGSLRLSCAASGFTFDSNAMGWYRQAPGKERELVAAISTGGSTYYADSVKGRFTISRDNAKNTVYLQMNSLKPEDTAVYYCARDPPYPDTWYGYWGQGTQVTVSS`
Response: low polyreactivity

Request: Cool, now `QVQLVESGGALVQAGGSLRLSCAASGFIFDAYAMGWYRQAPGKERELVPAIDYSGGNTYYADSVKGRFTISRDYAKNTVYLQMNSLKTEDTAVYYCNADYAGSFWSREYDYWGQGTQVTVSS`
Response: low polyreactivity

Request: Next up: `QVQLVESGGGLVQAGGSLRLSCDASGRTFGYYAMGWYRHAPGQERELVAGIRSSGGSTYYADSVKGRFTISRDNAKNTVYLQMNSLKPEDTAVYYCAARLRSYHYRYGYDYWGQGTQVTVSS`
Response: high polyreactivity

Next sequence, polyreactivity (PSR sort gate) to be filled in.
Request: # query: polyreactivity (PSR sort gate) of entry `QVQLVESGGGLVQAGGSLSLSCAASGSIFPHYAMGWYRQAPGKERELVAAISRSGTSTYYADSVKGRFTISRDNAKNTVYLQMNSLNPEDTAVYYCATGYRRDHDDYWGQGTQVTVSS`
Response: high polyreactivity
